Attribution: ChEMBL document CHEMBL2074340

- target_of_assay: Solute carrier organic anion transporter family member 3A1 (SLCO3A1/OATP3A1) (Homo sapiens, UniProt Q9UIG8)
- Sequence (Q9UIG8 whole entry): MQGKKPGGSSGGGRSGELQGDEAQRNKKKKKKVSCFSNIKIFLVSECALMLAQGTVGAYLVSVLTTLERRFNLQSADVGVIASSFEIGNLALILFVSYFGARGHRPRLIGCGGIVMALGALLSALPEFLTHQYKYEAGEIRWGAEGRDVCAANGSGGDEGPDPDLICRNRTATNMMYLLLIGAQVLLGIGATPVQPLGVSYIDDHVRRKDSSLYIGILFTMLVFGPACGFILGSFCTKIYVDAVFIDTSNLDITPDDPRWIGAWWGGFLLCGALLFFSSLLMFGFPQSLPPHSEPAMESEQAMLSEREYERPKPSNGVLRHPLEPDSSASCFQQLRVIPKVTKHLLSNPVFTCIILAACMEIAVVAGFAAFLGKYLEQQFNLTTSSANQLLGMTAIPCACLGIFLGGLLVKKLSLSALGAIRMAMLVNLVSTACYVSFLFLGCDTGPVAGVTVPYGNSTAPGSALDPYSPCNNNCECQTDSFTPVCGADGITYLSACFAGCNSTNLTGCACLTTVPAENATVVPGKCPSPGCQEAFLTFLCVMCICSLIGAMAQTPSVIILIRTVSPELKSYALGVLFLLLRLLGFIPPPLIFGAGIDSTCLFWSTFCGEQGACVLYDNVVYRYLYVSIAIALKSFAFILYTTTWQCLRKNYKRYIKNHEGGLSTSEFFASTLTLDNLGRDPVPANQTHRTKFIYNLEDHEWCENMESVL
- assay_procedure: TP_TRANSPORTER: inhibition of PGE2 uptake (PGE2: 0.015 uM) by Prostaglandin D2 at 0.15uM in Xenopus laevis oocytes
- Assay type: functional, cell-based, Oocyte
- Parameters: scale not given: the % may be the effect or the level left
- conditions: Xenopus laevis oocytes expressing OATP3A1 (SLCO3A1), probe PGE2, read-out: Activity
readout: activity at 0.15 µM

Query string: Entry CCCCC[C@H](O)/C=C/[C@H]1C(=O)C[C@H](O)[C@@H]1C/C=C\CCCC(=O)O [PROSTAGLANDIN D2] : reported activity at 0.15 µM = ?
Result string: 30%
